Sequence of the target: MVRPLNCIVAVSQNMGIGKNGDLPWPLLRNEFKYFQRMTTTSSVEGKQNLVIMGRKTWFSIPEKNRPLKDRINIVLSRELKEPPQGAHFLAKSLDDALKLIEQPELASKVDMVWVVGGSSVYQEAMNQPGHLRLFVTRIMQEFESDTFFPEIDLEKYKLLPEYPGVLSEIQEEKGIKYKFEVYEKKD
pIC50: −log10 of the molar value.
Decide by pIC50: equal to or exceeding 5 means Yes, less means No.

[
  {
    "SMILES RECORD": "CCc1c(Sc2ccc(Cl)cc2Cl)[nH]c2nc(N)nc(N)c12",
    "ANSWER LABEL": "Yes"
  },
  {
    "SMILES RECORD": "Cc1c(Sc2ccc(Cl)c(Cl)c2)[nH]c2nc(N)nc(N)c12",
    "ANSWER LABEL": "No"
  },
  {
    "SMILES RECORD": "CCc1c(Sc2cccc(OC)c2)[nH]c2nc(N)nc(N)c12",
    "ANSWER LABEL": "No"
  },
  {
    "SMILES RECORD": "CCc1c(Sc2ccc([N+](=O)[O-])cc2)[nH]c2nc(N)nc(N)c12",
    "ANSWER LABEL": "Yes"
  },
  {
    "SMILES RECORD": "CCc1c(Sc2cccc3ccccc23)[nH]c2nc(N)nc(N)c12",
    "ANSWER LABEL": "No"
  },
  {
    "SMILES RECORD": "CCc1c(Sc2c(Cl)cccc2Cl)[nH]c2nc(N)nc(N)c12",
    "ANSWER LABEL": "Yes"
  },
  {
    "SMILES RECORD": "CCc1c(Sc2ccc(OC)cc2)[nH]c2nc(N)nc(N)c12",
    "ANSWER LABEL": "No"
  },
  {
    "SMILES RECORD": "CCc1c(Sc2ccc(Cl)cc2)[nH]c2nc(N)nc(N)c12",
    "ANSWER LABEL": "Yes"
  },
  {
    "SMILES RECORD": "CCc1c(Sc2cccc3cccnc23)[nH]c2nc(N)nc(N)c12",
    "ANSWER LABEL": "Yes"
  },
  {
    "SMILES RECORD": "CCc1c(Sc2cccc(Cl)c2)[nH]c2nc(N)nc(N)c12",
    "ANSWER LABEL": "Yes"
  }
]

Where do these numbers come from? They come from ChEMBL document CHEMBL1145401.
